The values you see were collected from paper PMC9352680.

- target_or_system: T1, PUF4 RNA-binding domain (Saccharomyces cerevisiae, UniProt P25339 537-888)
- T1 sequence: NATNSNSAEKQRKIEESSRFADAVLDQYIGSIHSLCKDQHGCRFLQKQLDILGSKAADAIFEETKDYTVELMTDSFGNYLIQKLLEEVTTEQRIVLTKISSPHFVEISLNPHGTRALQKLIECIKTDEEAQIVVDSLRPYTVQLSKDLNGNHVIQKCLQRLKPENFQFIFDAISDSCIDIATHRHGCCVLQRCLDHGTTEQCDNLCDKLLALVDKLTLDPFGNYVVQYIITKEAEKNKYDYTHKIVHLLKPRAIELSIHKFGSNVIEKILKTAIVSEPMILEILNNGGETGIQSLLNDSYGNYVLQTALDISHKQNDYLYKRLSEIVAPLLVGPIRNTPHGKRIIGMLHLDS
- procedure_summary: Mg; RNA-MaP; 20 mM Na-HEPES pH 7.4, 30 mM KOAc, 0.75 mM MgCl2, 0.1% Tween-20, 5% glycerol, 0.1 mg/mL BSA, 2 mM DTT; 25 C; 0.0125-409.6 nM protein
- measurement_setup: tags: N-His6-TEV cleaved; C-SNAP kept, Cy3B-labelled; label: tethered on chip by stalled RNA polymerase
measured_endpoint: pKd
One number for each entry, as −log10 of the molar value.

Below, 6 binders whose answers are already recorded.
>>> measured("UCUCUUGCACACUAUUAUCUCUCUU (ssRNA) [Id_ii_S1_P4E.4_K4.3_C4.2_[C-2G]_[T-1C]_H4.3_A4.1_F4.1_T4.2_[G10T]_[T11C]]")
7.04
>>> measured("UCUCUUUGUAUUCGGUUCUCUU (ssRNA) [Ic_S1_P5E.1_K5.1_C5.1_H5.1_A5.1_[A7C]_F5.1_[T8G]_[T9G]_[A10T]_T5.1]")
6.24
>>> measured("ACAAACGCUAUAUAUAUCACAAAC (ssRNA) [Id_ii_S3_P3E.3_K3.2_C3.2_[C-2G]_[T-1C]_H3.2_A3.1_F3.1_T3.2_[A10C]]")
6.08
>>> measured("UCUCUUUGUUUCCUAUUAUUAUCUCUU (ssRNA) [Ie_S1_P5E.1_K5.1_C5.1_H5.1_[+3TTCCT]_A5.1_F5.1_T5.1]")
6.86
>>> measured("Ic_S4_P4E.1_K4.1_C4.1_H4.1_A4.1_[A6C]_F4.1_[T8C]_[A9C]_T4.1 (ssRNA) RNA: UUUGACAACUGAUCGUUCUUUCUUGUAUCUCCUUCUUUCUCGAUCAGUUGUCUUU")
7.50
>>> measured("UCUCUUCGUGUAUAUUAUUUCUCUU (ssRNA) [Id_ii_S1_P4E.2_K4.1_C4.2_[T-1G]_H4.1_A4.1_F4.1_T4.2_[G10T]]")
8.92

Value sought for every listed binder: pKd.
1. Id_ii_S2_P5E.2_K5.1_C5.2_[C-2T]_[T-1C]_H5.1_A5.1_F5.1_T5.2_[T11A]_[A12G] (ssRNA) RNA: UUUGAUUAAUAUGAUAUCGUUCUUUCUUCUGUAUUAUUAAGUUCUUUCUCGAUAUCAUAUUAAUCUUU
2. Ic_S2_P5E.1_K5.1_C5.1_H5.1_A5.1_[T6A]_[A7C]_F5.1_[T8G]_[T9G]_[A10T]_T5.1 (ssRNA) RNA: UUUGAUUAAUAUGAUAUCGUUCUUUCUUGUAUACGGUUUCUUUCUCGAUAUCAUAUUAAUCUUU
3. Ie_S4_P5E.1_K5.1_C5.1_H5.1_A5.1_[+7TCT]_F5.1_T5.1 (ssRNA) RNA: UUUGACAACUGAUCGUUCUUUCUUGUAUUAUCUUUAUUCUUUCUCGAUCAGUUGUCUUU
4. Ie_S2_P3E.2_K3.1_C3.2_H3.1_A3.1_[+5CC]_F3.1_T3.2 (ssRNA) RNA: UUUGAUUAAUAUGAUAUCGUUCUUUCUCUUGUAUCCAUAUAUUCUUUCUCGAUAUCAUAUUAAUCUUU
5. UCUCUUCAUGUAUAUAGCUCUCUU (ssRNA) [Id_ii_S1_P3E.2_K3.1_C3.2_[T-1A]_H3.1_A3.1_F3.1_T3.2_[T9G]_[A10C]]
6. Id_ii_S4_P4E.2_K4.1_C4.2_H4.1_A4.1_F4.1_T4.2_[G10A] (ssRNA) RNA: UUUGACAACUGAUCGUUCUUUCUCUUGUAUAUUAAUUUCUUUCUCGAUCAGUUGUCUUU
7. Ib_S2_P5E.1_K5.1_C5.1_H5.1_[A4C]_A5.1_[T5A]_F5.1_T5.1 (ssRNA) RNA: UUUGAUUAAUAUGAUAUCGUUCUUUCUUGUCAUAUUAUUCUUUCUCGAUAUCAUAUUAAUCUUU

Ans.
[7.29, 6.24, 7.60, 8.15, 8.27, 9.49, 8.24]

Answer for every listed entry: what is its pKd? The entries follow.
1. Ie_S4_P5E.1_K5.1_C5.1_H5.1_A5.1_[+7CTT]_F5.1_T5.1 (ssRNA) RNA: UUUGACAACUGAUCGUUCUUUCUUGUAUUACUUUUAUUCUUUCUCGAUCAGUUGUCUUU
2. UCUCUUUGUACAUAUCUCUU (ssRNA) [Ic_S1_P3E.1_K3.1_C3.1_H3.1_A3.1_[T5C]_F3.1_T3.1]
3. UCUCUUUGUAUAAUGUCUCUU (ssRNA) [Ic_S1_P4E.1_K4.1_C4.1_H4.1_A4.1_[T7A]_F4.1_[A9G]_T4.1]

Ans.
7.57
8.23
8.22

Batch lookup, pKd per entry.
1. Ie_S2_P3E.2_K3.1_C3.2_[+-1TTCC]_H3.1_A3.1_F3.1_T3.2 (ssRNA) RNA: UUUGAUUAAUAUGAUAUCGUUCUUUCUCUUUCCUGUAUAUAUAUUCUUUCUCGAUAUCAUAUUAAUCUUU
2. UCUCUUUGUAACAGCCUCUCUU (ssRNA) [Ic_S1_P5E.1_K5.1_C5.1_H5.1_A5.1_[T5A]_[T6C]_F5.1_[T8G]_[T9C]_[A10C]_T5.1]
3. Id_ii_S2_P5E.3_K5.2_C5.2_[C-2A]_H5.2_A5.1_F5.1_T5.2_[T11C]_[A12G] (ssRNA) RNA: UUUGAUUAAUAUGAUAUCGUUCUUUCUAUUAUAUUAUUACGUUCUUUCUCGAUAUCAUAUUAAUCUUU
4. Ic_S2_P5E.1_K5.1_C5.1_H5.1_A5.1_[T5C]_[T6A]_[A7T]_F5.1_[T9A]_[A10C]_T5.1 (ssRNA) RNA: UUUGAUUAAUAUGAUAUCGUUCUUUCUUGUACAUUACUUCUUUCUCGAUAUCAUAUUAAUCUUU
5. Id_ii_S2_P3E.4_K3.3_C3.2_[C-2A]_[T-1C]_H3.3_A3.1_F3.1_T3.2_[T9C]_[A10T] (ssRNA) RNA: UUUGAUUAAUAUGAUAUCGUUCUUUCUACACACUAUACUUUCUUUCUCGAUAUCAUAUUAAUCUUU

Ans.
[8.89, 5.94, 6.64, 9.05, 5.74]
